Tested on: SW-620 colon
Test: NCI tumour cell line growth inhibition, 48 h
ATTRIBUTE_MEASURED: GI50

MOLECULE | SYSTEM_TESTED | ASSAY_RESULT
Cc1cc(S(=O)(=O)Nc2nc3ccccc3c(=O)n2Cc2ccco2)c(S)cc1Cl | SW-620 colon | 30.7 µM
CCOc1cc(Cl)c(C(C)NC(=O)c2cccc(OC)c2)cc1OCC (stereo not given) | SW-620 colon | 4 µM
CC(=O)Oc1ccc(C2OC(c3ccc4ccccc4c3OC(C)=O)=NN2C(C)=O)c(OC(C)=O)c1 (stereo not given) | SW-620 colon | 0.455 µM
CO/N=C(/C)COc1ccc2c(c1)oc(=O)c1cc(OC)ccc12 | SW-620 colon | > 100 µM
NS(=O)(=O)c1ccc(N=Nc2c(O)[nH]c3ccc(C(=O)NCCCn4ccnc4)cc23)cc1 | SW-620 colon | > 25 µM
Clc1nc(Cl)c2ncn(-c3ccccc3)c2n1 | SW-620 colon | 2.08 µM
COc1ccc2nc3cc([N+](=O)[O-])ccc3c(NCCO)c2c1 | SW-620 colon | 4.08 µM
CCCCCOC(=O)Nc1nc(=O)n(C2OC(C)C(O)C2O)cc1F (stereo not given) | SW-620 colon | > 10000 µM
COc1ccc(OC)c(C2=C(c3cn(C)c4ccccc34)C(=O)NC2=O)c1 | SW-620 colon | 20.8 µM
COc1cccc(C(=O)NNc2nc(Cl)nc(N3CCN(C(c4ccccc4)c4ccccc4)CC3)n2)c1 | SW-620 colon | 1.9 µM
